# System: HT29 cells
# assay.overview: Annexin V-FITC/PI apoptosis assay, HT29
# measurement.context: HT29, 24 h, 200 µM
test.readout: viable cells [%] AV- / PI- (%)
// return numeric value only (unit: %, not printed)

Give the measured viable cells [%] AV- / PI- for CCc1occc(=O)c1[O-].F[P-](F)(F)(F)(F)F.[W+4].c1cc[cH-]c1.c1cc[cH-]c1 [Compound 9]
92.9

---
Look up and state reported viable cells [%] AV- / PI- for F[P-](F)(F)(F)(F)F.O=c1c([O-])c(-c2ccc(Cl)cc2)oc2ccccc12.[W+4].c1cc[cH-]c1.c1cc[cH-]c1 [Compound 3]
2.2

Supply reported viable cells [%] AV- / PI- belonging to this compound: CCc1occc(=S)c1[O-].F[P-](F)(F)(F)(F)F.[W+4].c1cc[cH-]c1.c1cc[cH-]c1 [Compound 10]
89.5

Entry Cc1cc(=S)c([O-])co1.F[P-](F)(F)(F)(F)F.[W+4].c1cc[cH-]c1.c1cc[cH-]c1 [Compound 8] needs its viable cells [%] AV- / PI- filled in; supply it.
88.4

Annotate the compound Cc1c([O-])c(=O)ccn1C.F[P-](F)(F)(F)(F)F.[W+4].c1cc[cH-]c1.c1cc[cH-]c1 [Compound 6] with its measured viable cells [%] AV- / PI-.
89.1

For the compound Cc1occc(=S)c1[O-].F[P-](F)(F)(F)(F)F.[W+4].c1cc[cH-]c1.c1cc[cH-]c1 [Compound 2] , give its reported viable cells [%] AV- / PI-.
86.8

Check the records and state viable cells [%] AV- / PI- for Cc1occc(=O)c1[O-].[Cl-].[W+4].c1cc[cH-]c1.c1cc[cH-]c1 [Compound 1A]
87.8

Given the compound Cc1cc(=O)c([O-])co1.F[P-](F)(F)(F)(F)F.[W+4].c1cc[cH-]c1.c1cc[cH-]c1 [Compound 7] , write its reported viable cells [%] AV- / PI-.
88.4

###

# System: MCF-7 cells
# assay.overview: Annexin V-FITC/PI apoptosis assay, MCF-7
# measurement.context: MCF-7, 24 h, 200 µM
test.readout: viable cells [%] AV- / PI- (%)
Unit % implied. Number only.

In the examples that follow, each entry is paired with its recorded viable cells [%] AV- / PI-.
Give the value of viable cells [%] AV- / PI- reported for the following: Cc1cc(=S)c([O-])co1.F[P-](F)(F)(F)(F)F.[W+4].c1cc[cH-]c1.c1cc[cH-]c1 [Compound 8]
87.3

// fetch viable cells [%] AV- / PI- given entry CCc1occc(=S)c1[O-].F[P-](F)(F)(F)(F)F.[W+4].c1cc[cH-]c1.c1cc[cH-]c1 [Compound 10]
15.7

Please turn your attention to the following entry.
Provide viable cells [%] AV- / PI- value for the following compound: Cc1occc(=O)c1[O-].[Cl-].[W+4].c1cc[cH-]c1.c1cc[cH-]c1 [Compound 1A]
94.3

###

# System: HT29 cells
# assay.overview: Annexin V-FITC/PI apoptosis assay, HT29
# measurement.context: HT29, 24 h, 200 µM
test.readout: early apoptotic cells [%] AV+ / PI- (%)
Form entry: value (%) — number only.

For Cc1cc(=O)c([O-])co1.F[P-](F)(F)(F)(F)F.[W+4].c1cc[cH-]c1.c1cc[cH-]c1 , write its early apoptotic cells [%] AV+ / PI-.
3.0

// Input: Cc1occc(=O)c1[O-].[Cl-].[W+4].c1cc[cH-]c1.c1cc[cH-]c1 . Output its early apoptotic cells [%] AV+ / PI- only.
3.5

Specify early apoptotic cells [%] AV+ / PI- for CCc1occc(=S)c1[O-].F[P-](F)(F)(F)(F)F.[W+4].c1cc[cH-]c1.c1cc[cH-]c1 and stop.
3.1

Identify measured early apoptotic cells [%] AV+ / PI- associated with Cc1occc(=S)c1[O-].F[P-](F)(F)(F)(F)F.[W+4].c1cc[cH-]c1.c1cc[cH-]c1
3.9

Note down early apoptotic cells [%] AV+ / PI- recorded for Cc1c([O-])c(=O)ccn1C.F[P-](F)(F)(F)(F)F.[W+4].c1cc[cH-]c1.c1cc[cH-]c1
4.3

---
Indicate its recorded early apoptotic cells [%] AV+ / PI-; the molecule in question is F[P-](F)(F)(F)(F)F.O=c1c([O-])c(-c2ccc(Cl)cc2)oc2ccccc12.[W+4].c1cc[cH-]c1.c1cc[cH-]c1
0.8

Give the reported early apoptotic cells [%] AV+ / PI- for this molecule. F[P-](F)(F)(F)(F)F.O=C([O-])c1ccccn1.[W+4].c1cc[cH-]c1.c1cc[cH-]c1
0.9

For CCc1occc(=O)c1[O-].F[P-](F)(F)(F)(F)F.[W+4].c1cc[cH-]c1.c1cc[cH-]c1 , write its early apoptotic cells [%] AV+ / PI-.
0.9

Item Cc1cc(=S)c([O-])co1.F[P-](F)(F)(F)(F)F.[W+4].c1cc[cH-]c1.c1cc[cH-]c1 : provide early apoptotic cells [%] AV+ / PI-
3.3

###

# Tested on: HCT116 multicellular tumor spheroids
# assay.overview: Resazurin assay, HCT116 3D spheroids
# Format: cell-based, human
# measurement.context: 96 h, spheroids
Form field: IC50 (one value per entry).

The following molecules have reported results that may help.
# return recorded IC50 for input F[P-](F)(F)(F)(F)F.O=C([O-])c1ccccn1.[W+4].c1cc[cH-]c1.c1cc[cH-]c1
> 200 µM

Note IC50 for the molecule shown: Cc1cc(=S)c([O-])co1.F[P-](F)(F)(F)(F)F.[W+4].c1cc[cH-]c1.c1cc[cH-]c1
178 µM

Turning to the following molecule.
Report IC50 for CCc1occc(=O)c1[O-].F[P-](F)(F)(F)(F)F.[W+4].c1cc[cH-]c1.c1cc[cH-]c1
> 200 µM

###

# Test system: HCT116 cells
# assay.overview: Annexin V-FITC/PI apoptosis assay, HCT116
# Format: cell-based, human
# measurement.context: HCT116, 24 h, 200 µM
Attribute: early apoptotic cells [%] AV+ / PI-
Please answer in the form of a number followed by its unit of measurement.

In one line, give reported early apoptotic cells [%] AV+ / PI- of the entry Cc1occc(=O)c1[O-].[Cl-].[W+4].c1cc[cH-]c1.c1cc[cH-]c1 .
5.6 ± 2.1%

Report early apoptotic cells [%] AV+ / PI-, nothing else, for this molecule: F[P-](F)(F)(F)(F)F.O=C([O-])c1ccccn1.[W+4].c1cc[cH-]c1.c1cc[cH-]c1
2.0 ± 1.1%

Give reported early apoptotic cells [%] AV+ / PI- value for Cc1cc(=O)c([O-])co1.F[P-](F)(F)(F)(F)F.[W+4].c1cc[cH-]c1.c1cc[cH-]c1
4.5 ± 1.8%

Consider the molecule CCc1occc(=O)c1[O-].F[P-](F)(F)(F)(F)F.[W+4].c1cc[cH-]c1.c1cc[cH-]c1 and give its recorded early apoptotic cells [%] AV+ / PI-.
1.5 ± 0.8%

Complete the entry with early apoptotic cells [%] AV+ / PI- for Cc1cc(=S)c([O-])co1.F[P-](F)(F)(F)(F)F.[W+4].c1cc[cH-]c1.c1cc[cH-]c1
5.5 ± 2.0%

More entries:
Provide only the value of recorded early apoptotic cells [%] AV+ / PI- for F[P-](F)(F)(F)(F)F.O=c1c([O-])c(-c2ccc(Cl)cc2)oc2ccccc12.[W+4].c1cc[cH-]c1.c1cc[cH-]c1
0.0 ± 0.0%

###

# System: A549 (non-small cell lung carcinoma) cells
# assay.overview: MTT cytotoxicity assay, A549 monolayer
# Type: cell-based, human
# measurement.context: exposure time 96 h, mean ± SD
# Description: CH1/PA-1 (ovarian teratocarcinoma), SW480 (colon carcinoma) and A549 (non-small cell lung cancer) cells were maintained as described in the reference. IMR-90 human fetal lung fibroblasts (from the European Collection of Authenticated Cell Cultures, Porton Down, Salisbury, UK) were cultured in Stable Cell^TM DMEM/F12 supplemented with 0.01 mg/mL human recombinant insulin (both purchased from Sigma-Aldrich) and 10% fetal bovine serum (FBS, BioWest, Nuaillé, France). […]
test.readout: pIC50
// pIC50 is dimensionless: -log10 of concentration (M)

Answered examples (4):
Give pIC50 for the following compound: CCc1occc(=S)c1[O-].F[P-](F)(F)(F)(F)F.[W+4].c1cc[cH-]c1.c1cc[cH-]c1
4.28

Tell us which pIC50 value is on record for F[P-](F)(F)(F)(F)F.[O-]c1c(-c2ccc(Cl)cc2)oc2ccccc2c1=S.[W+4].c1cc[cH-]c1.c1cc[cH-]c1
5.20

Quickly give me recorded pIC50 for Cc1c([O-])c(=O)ccn1C.F[P-](F)(F)(F)(F)F.[W+4].c1cc[cH-]c1.c1cc[cH-]c1
3.85

Fill in reported pIC50 for this entry: Cc1occc(=S)c1[O-].F[P-](F)(F)(F)(F)F.[W+4].c1cc[cH-]c1.c1cc[cH-]c1
4.44

Consider the additional compound presented here.
Report measured pIC50; entry is F[P-](F)(F)(F)(F)F.O=c1c([O-])c(-c2ccc(Cl)cc2)oc2ccccc12.[W+4].c1cc[cH-]c1.c1cc[cH-]c1
4.72
